# target: human CB2R (Homo sapiens, UniProt P34972)
# Construct: host or cells: CHO cells
# Sequence (P34972 whole entry): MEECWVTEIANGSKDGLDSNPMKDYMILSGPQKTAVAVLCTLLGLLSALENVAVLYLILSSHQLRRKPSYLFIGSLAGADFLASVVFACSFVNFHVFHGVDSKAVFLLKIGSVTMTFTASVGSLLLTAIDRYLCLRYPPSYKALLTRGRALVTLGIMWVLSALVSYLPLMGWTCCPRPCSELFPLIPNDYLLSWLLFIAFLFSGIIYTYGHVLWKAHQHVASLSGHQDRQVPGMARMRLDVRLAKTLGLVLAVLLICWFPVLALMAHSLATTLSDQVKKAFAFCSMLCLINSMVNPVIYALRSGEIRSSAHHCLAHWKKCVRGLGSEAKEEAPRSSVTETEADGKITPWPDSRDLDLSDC
# experimentDescription: CB2R mediated modulation of cAMP synthesis
# Type: cell-based
# statedConditions: CHO cells expressing human CB2R; inhibition of forskolin-stimulated cAMP synthesis; read-out: CB2 EC50
pEC50: −log10 of the molar value.
Below, each of the compounds is paired with its reported pEC50 value.
measurementLabel: pEC50

• CC(C)(N[C@H]1CC[C@@H](O)CC1)C(=O)Nc1cc(C(C)(C)CO)no1 = 6.52
• COCCOCC(C)(C)c1cc(NC(=O)C(C)(C)N(C)C2CCOCC2)on1 = 6.61
• CC(C)(NCCC1CCOCC1)C(=O)Nc1cc(C(C)(C)CO)no1 = 6.95
• CC(C)N(C)C(C)(C)C(=O)Nc1cc(C(C)(C)CO)no1 = 6.61
• COCC(C)(C)c1cc(NC(=O)C(C)(C)NCC2CCOCC2)no1 = 6.88
• CC[C@H](C)N(C)C(C)(C)C(=O)Nc1cc(C(C)(C)CO)no1 = 6.66
• CC(C)(CO)c1cc(NC(=O)C(C)(C)N2CC[C@@H](O)C2)on1 = 6.31
• Cc1ncc(C(C)(C)c2cc(NC(=O)C(C)(C)NC3CCN(S(C)(=O)=O)CC3)on2)s1 = 6.71
• CN(C[C@H]1CCCN(S(C)(=O)=O)C1)C(C)(C)C(=O)Nc1cc(C(C)(C)CO)no1 = 6.90
• COCC(C)(C)c1cc(NC(=O)C(C)(C)NC2CCOCC2)on1 = 6.50
• COCC(C)(C)c1cc(NC(=O)C(C)(C)NC2CCOCC2)no1 = 6.47
• CC(C)(NCC1CCOCC1)C(=O)Nc1cc(C(C)(C)COC2CCCCO2)no1 (stereo not shown) = 6.70
• CC(C)(NCC1CCOCC1)C(=O)Nc1cc(C(C)(C)CO)no1 = 6.43
• CN(CC1CCOCC1)C(C)(C)C(=O)Nc1nnc(C(C)(C)CO)s1 = 7.96
• CC(C)(NCCCC(F)(F)F)C(=O)Nc1cc(C(C)(C)OCCO)no1 = 6.96
• CC(C)(NC1CCN(S(C)(=O)=O)CC1)C(=O)Nc1cc(C(C)(C)CO)no1 = 6.52
